Taken from patent US20100144712A1.

system: Aspergillus niger ATCC 9142; experiment: In vitro antifungal activity (MIC80), Aspergillus niger ATCC 9142; type: cell-based; details: Aspergillus niger, ATCC9142; Table 3, ATCC 9142; read-out: Minimal inhibitory concentration (MIC80)
# key: entry, value: MIC80
Field format: number, assumed µg/mL, no unit text.

{"compound": "C[C@@H](N1CCN(c2nc3ccc(NCCN4CCOCC4)cc3s2)CC1)[C@](O)(Cn1cncn1)c1ccc(F)cc1F", "system name": "Aspergillus niger ATCC 9142", "MIC80 / µg/mL": 4}
{"compound": "C[C@@H](N1CCN(c2nc3ccc(Cl)cc3o2)CC1)[C@](O)(Cn1cncn1)c1ccc(F)cc1F", "system name": "Aspergillus niger ATCC 9142", "MIC80 / µg/mL": 1}
{"compound": "C[C@@H](N1CCCN(c2ccccn2)CC1)[C@](O)(Cn1cncn1)c1ccc(F)cc1F", "system name": "Aspergillus niger ATCC 9142", "MIC80 / µg/mL": 1}
{"compound": "C[C@@H](N1CCN(c2nc3ccc(Cl)cc3s2)CC1)[C@](O)(Cn1cncn1)c1ccc(F)cc1F", "system name": "Aspergillus niger ATCC 9142", "MIC80 / µg/mL": 2}

Could you now consider this next compound?
Value of MIC80 reported for the compound CCC(C)n1ncn(-c2ccc(N3CCN(c4ccc(OCC5COC(Cn6cncn6)(c6ccc(Cl)cc6Cl)O5)cc4)CC3)cc2)c1=O (stereo not drawn) [I, itraconazole, reference compound] is 1

---

System: Candida albican ATCC MYA-1003
Assay: In vitro antifungal activity (MIC80), Candida albican ATCC MYA-1003
Format: cell-based
Conditions: Candida; Table 2, MYA 1003; read-out: Minimal inhibitory concentration (MIC80)
Procedure: In vitro antifungal activities of the inventive antifungal compounds were evaluated using test strains including Candida albican (ATCC 90873, 204276, 62342, 64124, 64550, 96901, MYA-573, MYA-574, MYA-575, MYA-576, MYA-1003) and Aspergillus fumigatus (ATCC 16424). […] Minimal inhibitory concentration (MIC80) of each compound was determined as the lowest concentration of the test compounds required to reduce growth by 80% relative to a control strain not treated. […]
assay metric: MIC80

Look over these answered cases.
{"compound": "C[C@@H](N1CCN(c2nc3ccc(NCCN4CCOCC4)cc3s2)CC1)[C@](O)(Cn1cncn1)c1ccc(F)cc1F [Example 12]", "MIC80": "8 µg/mL"}
{"compound": "C[C@@H](N1CCN(Cc2cccs2)CC1)[C@](O)(Cn1cncn1)c1ccc(F)cc1F [Example 44]", "MIC80": "> 128 µg/mL"}
{"compound": "Cc1ccc(-c2noc(C(=O)N3CCN([C@H](C)[C@](O)(Cn4cncn4)c4ccc(F)cc4F)CC3)n2)cc1 [Example 47]", "MIC80": "> 128 µg/mL"}
{"compound": "C[C@@H](N1CCN(c2cccc(OCc3cccs3)n2)CC1)[C@](O)(Cn1cncn1)c1ccc(F)cc1F [Example 25]", "MIC80": "> 128 µg/mL"}
{"compound": "C[C@@H](N1CCN(c2nc3ccc(N(C)CCN4CCOCC4)cc3s2)CC1)[C@](O)(Cn1cncn1)c1ccc(F)cc1F [Example 13]", "MIC80": "32 µg/mL"}
{"compound": "C[C@@H](N1CCN(c2cccc(OCc3ccccc3)n2)CC1)[C@](O)(Cn1cncn1)c1ccc(F)cc1F [Example 20]", "MIC80": "> 128 µg/mL"}
{"compound": "OC(Cn1cncn1)(Cn1cncn1)c1ccc(F)cc1F [F, fluconazole, reference compound]", "MIC80": "> 128 µg/mL"}
{"compound": "C[C@@H](N1CCN(Cc2ccco2)CC1)[C@](O)(Cn1cncn1)c1ccc(F)cc1F [Example 43]", "MIC80": "> 128 µg/mL"}

The reported MIC80 value, Candida albican ATCC MYA-1003, for C[C@@H](N1CCN(c2ccc(C#N)nc2)CC1)[C@](O)(Cn1cncn1)c1ccc(F)cc1F [Example 17] reads 32 µg/mL
